Each entry below carries its recorded Average %.
# study_target: T1, HLA-A*24:02 (human, biotinylated heavy chain)
# T1 construct: Conditional HLA class I complex as for m1
# method: UV peptide exchange; HLA class I ELISA
Value and unit, in that order.

Worked examples follow.
> print(dat)
                                     binder  readout.label  test.result
1  LIAMDSAIT [Peptide 10, 9-mer LIAMDSAIT derived from P22 (SEQ ID NO: 1003)]      Average %         4.8%
2  KQLIAMDSA [Peptide 9, 9-mer KQLIAMDSA derived from P22 (SEQ ID NO: 1003)]      Average %           5%
3  LYHREKQLI [Peptide 5, 9-mer LYHREKQLI derived from P22 (SEQ ID NO: 1003)]      Average %        17.8%

Task item: Let me know recorded Average % for SLIAMDSAI [Peptide 3, 9-mer SLIAMDSAI derived from FUS1 (SEQ ID NO: 1001)] , thanks.
Reply: 5.5%

Task item: Let me know recorded Average % for AMDSAITLW [Peptide 1, 9-mer AMDSAITLW derived from FUS1 (SEQ ID NO: 1001)] , thanks.
Reply: 5.5%

Task item: Let me know recorded Average % for IAMDSAITL [Peptide 2, 9-mer IAMDSAITL derived from FUS1 (SEQ ID NO: 1001)] , thanks.
Reply: 7%

Task item: Let me know recorded Average % for YHREKQLIA [Peptide 6, 9-mer YHREKQLIA derived from P22 (SEQ ID NO: 1003)] , thanks.
Reply: 6.5%

Task item: Let me know recorded Average % for HREKQLIAM [Peptide 7, 9-mer HREKQLIAM derived from P22 (SEQ ID NO: 1003)] , thanks.
Reply: 5.5%

Task item: Let me know recorded Average % for SLYHREKQL [Peptide 4, 9-mer SLYHREKQL derived from P22 (SEQ ID NO: 1003)] , thanks.
Reply: 6.6%
